// data source = patent US8080523

Molecular target: T1, Kv1.1 (Mus musculus (Mouse)), P16388
T1 chain: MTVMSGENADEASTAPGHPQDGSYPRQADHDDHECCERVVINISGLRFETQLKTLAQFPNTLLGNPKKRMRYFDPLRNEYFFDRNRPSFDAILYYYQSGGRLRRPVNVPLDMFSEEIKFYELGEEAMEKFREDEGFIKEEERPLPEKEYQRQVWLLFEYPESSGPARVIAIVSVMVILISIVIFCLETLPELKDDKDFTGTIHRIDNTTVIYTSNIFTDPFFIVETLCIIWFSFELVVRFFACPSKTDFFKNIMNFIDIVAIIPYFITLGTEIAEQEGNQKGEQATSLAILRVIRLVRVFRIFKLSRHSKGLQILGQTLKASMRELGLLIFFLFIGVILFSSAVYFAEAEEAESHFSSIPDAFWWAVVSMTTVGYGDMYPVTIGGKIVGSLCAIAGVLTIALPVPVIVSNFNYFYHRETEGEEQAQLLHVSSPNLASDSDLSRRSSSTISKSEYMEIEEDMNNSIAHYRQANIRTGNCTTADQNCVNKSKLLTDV
Test: patch-clamp, block of channel current

[
  {
    "binder": "TIINVKCTSPKQCLPPCKAQFGQSAGAKCMNGKCKCYPH (modifications not checked) [Margatoxin, P40755 1-39]",
    "Kd, nM": 10
  }
]
